Target: T1, murine TIM-3 protein with hFc tag (mTIM-3-hFc protein) (mouse; human, UniProt Q8VIM0 29-191)
T1 construct: Made in HEK293 cells; also called mouse TIM-3 extracellular domain protein; not shown: human IgG Fc fragment (hFc) of the pCpC vector
T1 chain: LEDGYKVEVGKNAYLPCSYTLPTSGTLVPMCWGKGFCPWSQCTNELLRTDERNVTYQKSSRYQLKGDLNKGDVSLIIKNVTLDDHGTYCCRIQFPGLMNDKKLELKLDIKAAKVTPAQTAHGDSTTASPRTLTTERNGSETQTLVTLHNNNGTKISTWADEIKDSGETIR
Assay: ELISA, coated mTIM-3-hFc; antibody 6.6667 nM
OBSERVABLE: OD450
Please reply with the value in numeric form only.

Some solved cases for reference:
- BINDER: "7A4F10 (TIM-3 antibody purified from hybridoma, chimeric antibody of Example 2) (antibody, V domains shown, From hybridoma of Harbour H2L2 transgenic mice: human variable regions, rat constant regions) VH: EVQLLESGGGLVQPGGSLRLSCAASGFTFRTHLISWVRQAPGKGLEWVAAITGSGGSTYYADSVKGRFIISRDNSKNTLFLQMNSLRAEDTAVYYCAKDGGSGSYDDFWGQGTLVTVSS VL: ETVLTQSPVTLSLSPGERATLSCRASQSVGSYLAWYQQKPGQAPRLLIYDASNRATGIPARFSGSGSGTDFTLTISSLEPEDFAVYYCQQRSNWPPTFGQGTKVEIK"
  OD450: 0.67
- BINDER: "18D2H2 (TIM-3 antibody purified from hybridoma, chimeric antibody of Example 2) (antibody, V domains shown, From hybridoma of Harbour H2L2 transgenic mice: human variable regions, rat constant regions) VH: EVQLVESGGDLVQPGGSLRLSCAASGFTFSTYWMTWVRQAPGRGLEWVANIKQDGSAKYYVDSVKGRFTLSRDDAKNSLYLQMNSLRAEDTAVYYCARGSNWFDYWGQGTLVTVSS VL: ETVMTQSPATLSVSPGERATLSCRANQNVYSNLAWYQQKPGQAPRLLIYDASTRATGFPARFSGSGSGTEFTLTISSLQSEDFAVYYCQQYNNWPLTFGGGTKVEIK"
  OD450: 0.69

Consider the record given below.
[ask] Report OD450 for 34B6D8 (TIM-3 antibody purified from hybridoma, chimeric antibody of Example 2) (antibody, V domains shown, From hybridoma of Harbour H2L2 transgenic mice: human variable regions, rat constant regions) VH: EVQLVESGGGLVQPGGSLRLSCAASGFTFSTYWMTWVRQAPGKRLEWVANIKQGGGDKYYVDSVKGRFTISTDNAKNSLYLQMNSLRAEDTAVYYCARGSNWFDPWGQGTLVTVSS VL: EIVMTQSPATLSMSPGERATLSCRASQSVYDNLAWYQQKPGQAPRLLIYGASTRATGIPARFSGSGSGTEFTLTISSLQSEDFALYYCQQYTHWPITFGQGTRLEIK please.
[reply] 0.74
